Experiment: Physicochemical and biopharmaceutical properties obtained in-house (PBPK input, experimental data)
Settings: experimental data; read-out: pKa (base)
quantity-measured: pKa

Ask | Give a short answer stating reported pKa for COC(=O)N[C@@H](C)CNc1nccc(-c2cn(C(C)C)nc2-c2cc(Cl)cc(NS(C)(=O)=O)c2F)n1 [encorafenib, Encorafenib] .
Reply | 4.53
